From: ChEMBL document CHEMBL5149997

target: Probable G-protein coupled receptor 174 (Mus musculus); test: Antagonist activity at mouse GPR174 transfected in human HEK293FT cells co-transfected with AP-TGFalpha assessed as inhibition of LysoPalloT-NH-C3-ph-m-O-C11-induced AP-TGFalpha release incubated for 90 mins by TGFalpha shedding assay relative to control; type: functional, cell-based; settings: filed as antagonist

>  <Structure>
CCCCCCCCCCCOc1cccc(CCC(=O)NC[C@@H](O)COP(=O)(O)O[C@@H](C)[C@H](NC(C)=O)C(=O)O)c1

>  <Measured On>
Probable G-protein coupled receptor 174 (Mus musculus)

>  <Imax, %>
106

$$$$
>  <Structure>
CCCCCCCCCCCOc1cccc(CCC(=O)NC[C@@H](O)COP(=O)(O)O[C@H](C)[C@H](NC(C)=O)C(=O)O)c1

>  <Measured On>
Probable G-protein coupled receptor 174 (Mus musculus)

>  <Imax, %>
103

$$$$
>  <Structure>
CCCCCCCCCCCOc1cccc(CCC(=O)NC[C@@H](O)COP(=O)(O)OC[C@H](NC(=O)C(C)(C)C)C(=O)O)c1

>  <Measured On>
Probable G-protein coupled receptor 174 (Mus musculus)

>  <Imax, %>
71.6

$$$$
